Where do the numbers come from? From patent US20240083857A1.

target: human SOS1 (loading of human K-Ras^G12C-GDP with fluorescent GTP-analog) (Homo sapiens, UniProt Q07889); experiment: Biochemical assay 3: K-Ras^G12C activation assay by hSOS1 (HTRF); conditions: E-notation values; unit inferred; read-out: Assay 3 (KRAS-Activation) IC50
pIC50 overview
Reminder that pIC50 means the negative base-10 logarithm of the concentration expressed in mol/L.

COc1cc2nc(C)nc(NC(C)c3ccc(-c4ccccc4C(O)CO)s3)c2cc1OC (stereo not drawn) = 6.20

Give its pIC50 value. Item: Cc1nc(NC(C)c2ccc(-c3ccccc3CN(C)C)s2)c2cc(N3CCCC3)ccc2n1 (stereo not drawn) 7.03

---

target: human SOS1 (loading of human K-Ras^G12C-GDP with fluorescent GTP-analog) (Homo sapiens, UniProt Q07889); assay: Biochemical assay 3: K-Ras^G12C activation assay by hSOS1 (HTRF); conditions: no GTP; read-out: Assay 3 (KRAS-Activation by SOS no GTP) activity expressed as IC50
Mark true for IC50 under 2000 nM, false if at or over.

COc1cc2nc(C)nc(N[C@@H](C)c3ccc(-c4ccc(C(=O)NCCN(C)C)cc4)s3)c2cc1OC (racemic) = true
COc1cc2nc(C)nc(NC(C)c3ccc(-c4ccccc4CNc4ccccn4)s3)c2cc1OC (stereo not shown) = true
COc1cc2nc(C)nc(N[C@H](C)c3cccc(-c4cn[nH]c4)c3)c2cc1O = false
COc1cc2nc(C)nc(N[C@H](C)c3ccccc3)c2cc1OC = true
COc1cc2nc(C)nc(NC(C)c3ccc(-c4cccc(C(N)=O)c4)s3)c2cc1OC (stereo not shown) = true
COc1cc2nc(C)nc(N[C@H](C)c3cccc(-c4ccccc4S(C)(=O)=O)c3)c2cc1OC = false

Does COc1cc2nc(C)nc(N[C@H](C)c3cccc(-c4c(F)ccc(C)c4Cl)c3)c2cc1OC have IC50 strictly under 2000 nM? false

Hello, I'm reviewing records and need to know if IC50 of COc1cc2nc(C)nc(NC(C)c3cccc4[nH]nc(C)c34)c2cc1OC (stereo not shown) is below 2000 nM. Could you check? false

Record COc1cc2nc(C)nc(NC(C)c3ccc(-c4ccccc4N)s3)c2cc1OC (stereo not shown) : is its IC50 strictly below 2000 nM? true

Please state whether IC50 is below 2000 nM for COc1cc2nc(C)nc(N[C@H](C)c3cccc(-c4cccc(S(C)(=O)=O)c4)c3)c2cc1OC true

Say whether its IC50 is strictly beneath 2000 nM. Entry: COc1cc2nc(C)nc(N[C@H](C)c3cccc(-c4ccncc4C)c3)c2cc1OC true

Please indicate whether the reported IC50 of COc1cc2nc(C)nc(N[C@H](C)c3cccc(-c4cnc5[nH]ccc5c4)c3)c2cc1OC is strictly below 2000 nM. true

---

target: K-Ras^G12C : hSOS1 interaction (Homo sapiens); test: Biochemical assay 1: K-Ras^G12C interaction assay with hSOS1 (HTRF); type: binding; settings: read-out: Assay 1 (KRAS-SOS Interaction) activity expressed as IC50
# IC50 listing for each entry below
# output: bare number, implied unit nM

COc1cc2nc(C)nc(N[C@@H](C)c3ccc(-c4c(C)noc4C)s3)c2cc1OC (racemic) [Example 147] = 397
Cc1nc(N[C@H](C)c2ccccc2)c2cc(N=S(C)(C)=O)ccc2n1 [Example 30] = 1340
COc1cc2nc(C)nc(N[C@@H](C)c3ccc(-c4cncnc4)s3)c2cc1OC (racemic) [Example 42] = 4270
COc1cc2nc(C)nc(N[C@H](C)c3cccc(-c4ccccc4S(C)(=O)=O)c3)c2cc1OC [Example 120] = 1590
COc1cc2nc(C)nc(NC(C)c3ccc(-c4cc(Cl)ccc4CN)s3)c2cc1OC (centres unmarked) [Example 292] = 31.5
COc1cc2nc(C)nc(NC(C)c3csc(-c4ccc(F)cc4CN)c3)c2cc1OC (centres unmarked) [Example 255] = 248
COc1cc2nc(C)nc(N[C@H](C)c3cccc(-c4cccc5cnccc45)c3)c2cc1OC [Example 39] = 1460

Now for a further compound.
Record COc1cc2nc(C)nc(NC(C)c3ccc(-c4ccc(F)cc4CNC(=O)c4cnc[nH]4)s3)c2cc1OC (centres unmarked) [Example 294] : what is its IC50 with K-Ras^G12C : hSOS1 interaction (Homo sapiens)? 3100

---

biological target: K-Ras^G12C : hSOS1 interaction (Homo sapiens, UniProt Q07889); experiment: Biochemical assay 1: K-Ras^G12C interaction assay with hSOS1 (HTRF); format: binding; details: E-notation values; unit inferred; read-out: Assay 1 (KRAS-SOS interaction) IC50
readoutKind: log10(IC50) (log10 of the value in nM)
Lab note - IC50 converted to log10 from values in nM.

Solved cases below.
COc1cc2nc(C)nc(NC(C)c3cc(Cl)c(-c4ccccc4CN)s3)c2cc1OC (centres unmarked) = 2.77
COc1cc2nc(C)nc(NC(C)c3ccc(-c4ccccc4C(O)C(C)C)s3)c2cc1OC (centres unmarked) = 2.75
COc1cc2nc(C)nc(NC(C)c3ccc(-c4ccc(C(F)(F)F)cc4C)s3)c2cc1OC (centres unmarked) = 3.94
COc1cc2nc(C)nc(NC(C)c3ccc(-c4ccc(F)cc4CNC(=O)CO)s3)c2cc1OC (centres unmarked) = 2.40
COc1cc2nc(C)nc(NC(C)c3cccc(OCc4ccccc4)c3)c2cc1OC (centres unmarked) = 3.83

Recall the recorded log10(IC50) for COc1cc2nc(C)nc(NC(C)c3ccc(-c4ccc(C(F)(F)F)cc4CN(C)C)s3)c2cc1OC (centres unmarked) with K-Ras^G12C : hSOS1 interaction (Homo sapiens, UniProt Q07889) and state it. 2.86

Find the measured log10(IC50): item Cc1nc(NC(C)c2ccc(-c3ccccc3CN(C)C)s2)c2cc(N3CCN(Cc4ccccc4)C(=O)C3)ccc2n1 (centres unmarked) , target or system K-Ras^G12C : hSOS1 interaction (Homo sapiens, UniProt Q07889). 1.68

Lookup: log10(IC50) / K-Ras^G12C : hSOS1 interaction (Homo sapiens, UniProt Q07889) / COc1cc2nc(C)nc(NC(C)c3sc(-c4ccccc4CN)cc3Cl)c2cc1OC (centres unmarked) 2.16

---

target: human SOS1 (nucleotide exchange of K-Ras^G12C) (Homo sapiens, UniProt Q07889); assay: Biochemical assay 2: K-Ras^G12C activation assay by hSOS1 at high GTP concentration (HTRF); settings: E-notation values; unit inferred; 50 μM GTP; read-out: Assay 2 (KRAS-Activation, high GTP) IC50
Quick reference for IC50 among some compounds
Only the number, expressed in nM, is required.

Consider the worked cases shown below.
COc1cc2nc(C)nc(NC(C)c3ccc(-c4ccc(C#N)cc4CN(C)C)s3)c2cc1OC (stereo not shown) = 262
COc1cc2nc(C)nc(NC(C)c3cc(Cl)c(Br)s3)c2cc1OC (stereo not shown) = 15700
COc1cc2nc(C)nc(NC(C)c3ccc(-c4ccc(C)cc4CN(C)C)s3)c2cc1OC (stereo not shown) = 39.4
COc1cc2nc(C)nc(NC(C)c3cc(C)c(-c4ccccc4CN(C)CCO)s3)c2cc1OC (stereo not shown) = 65.2

State the recorded IC50 for this entry: COc1cc2nc(C)nc(NC(C)c3ccc(-c4ccccc4CN(C)C)s3)c2cc1OC (single isomer, unassigned) [Example 390] 6250

Suppose we examine the compound COc1cc2nc(C)nc(NC(C)c3cc(Cl)c(-c4ccccc4CN)s3)c2cc1OC (stereo not shown) ; what IC50 value has been reported? 378

---

target: human SOS1 (nucleotide exchange of K-Ras^G12C) (Homo sapiens); assay: Biochemical assay 2: K-Ras^G12C activation assay by hSOS1 at high GTP concentration (HTRF); details: high GTP; read-out: Assay 2 (KRAS-Activation by SOS high GTP) activity expressed as IC50
readoutKind: pIC50
Answer as the number alone; pIC50 is minus log10 of concentration in mol/L.

COc1cc2nc(C)nc(N[C@@H](C)c3ccc(-c4cccc(S(C)(=O)=O)c4)s3)c2cc1OC (racemic) = 5.09

--- query ---
Fill in: pIC50 of COc1cc2nc(C)nc(N[C@@H](C)c3ccc(-c4cncc(C)c4)s3)c2cc1OC (racemic) is ___ 5.42

---

biological target: human SOS1 (loading of human K-Ras^G12C-GDP with fluorescent GTP-analog) (Homo sapiens); assay: Biochemical assay 3: K-Ras^G12C activation assay by hSOS1 (HTRF); settings: E-notation values; unit inferred; read-out: Assay 3 (KRAS-Activation) IC50
readoutKind: IC50 (nM)
Write it as a number; the unit nM goes unstated.

Cc1nc(NC(C)c2ccc(-c3ccccc3CN(C)C)s2)c2cc(NCCN3CCOCC3)ccc2n1 (stereo not shown) = 76.9
COc1cc2nc(C)nc(NC(C)c3ccc(-c4ccc(C(F)(F)F)cc4CN(C)C)s3)c2cc1OC (stereo not shown) = 388
COc1cc2nc(C)nc(N[C@H](C)c3cccc(-c4ccccc4CC(N)=O)c3)c2cc1OC = 1040
Cc1nc(NC(C)c2ccc(-c3ccccc3CN(C)C)s2)c2cc(N3CCC(N(C)C)C3)ccc2n1 (stereo not shown) = 45.1
COc1cc2nc(C)nc(NC(C)c3ccc(-c4ccc(Br)cc4CN(C)C)s3)c2cc1OC (stereo not shown) = 84.6
COC(=O)C(C)(C)c1ccccc1-c1ccc(C(C)Nc2nc(C)nc3cc(OC)c(OC)cc23)s1 (stereo not shown) = 1770
Cc1nc(NC(C)c2ccc(-c3ccccc3CN(C)C)s2)c2cc(NS(C)(=O)=O)ccc2n1 (stereo not shown) = 116
COc1cc2nc(C)nc(NC(C)c3cc(Cl)c(-c4ccccc4CN)s3)c2cc1OC (stereo not shown) = 584

Item under review: COc1cc2nc(C)nc(N[C@H](C)c3cccc(-c4ccnc(O)c4)c3)c2cc1OC . Reported IC50? 757

Which measured IC50 value corresponds to Cc1nc(NC(C)c2ccc(Br)s2)c2cc(N3CCCC3)ccc2n1 (stereo not shown) ? 14300

Record request: IC50 value, item COc1cc2nc(C)nc(NC(C)c3ccc(-c4ccc(O)nc4)s3)c2cc1OC (stereo not shown) 1020

Using the record for COc1cc2nc(C)nc(NC(C)c3ccc(-c4cccc(Cl)c4CN)s3)c2cc1OC (stereo not shown) , report its IC50. 249

// returns reported IC50 for input Cc1nc(NC(C)c2ccc(Br)s2)c2cc(N3CCN(C)CC3)ccc2n1 (stereo not shown) 1140
